Data origin, for the record: ChEMBL document CHEMBL3351688

Test system: Mus musculus
Protocol: Anticonvulsant activity in Swiss mouse assessed as protection against seizures administered intraperitoneally 15 mins before test by maximal electroshock seizure test
Assay type: functional
Experimental setup: ip
Friendly reminder: ED50 below 50 mg/kg is yes, at or above is no.

Reference set, count: 4
CCCCn1c(Cc2cccc(Cl)c2)n[nH]c1=S
yes
CCCCCCn1c(Cc2cccc(Cl)c2)n[nH]c1=S
no
CCCCCCCCn1c(Cc2cccc(Cl)c2)n[nH]c1=S
no
CCCCCCCCCn1c(Cc2cccc(Cl)c2)n[nH]c1=S
no

Lab note: next compound to report on.
q: Given CCCCCn1c(-c2cccc(Cl)c2Cl)n[nH]c1=S , is recorded ED50 strictly lower than 50 mg/kg?
a: no

* * *

Protocol: Toxicity in Swiss mouse assessed as effect on motor performance administered intraperitoneally 15 mins before test by Chimney test
Type: organism-based
Experimental setup: in vivo, ip
Readout type: TD50 at 0.25 h (mg/kg)
State just the number; it will be interpreted in mg/kg.

Record excerpt, results attached:
CCCCCn1c(-c2cccc(Cl)c2Cl)n[nH]c1=S
386
CCCCCCCCn1c(Cc2cccc(Cl)c2)n[nH]c1=S
391
CCCCCCCCCn1c(Cc2cccc(Cl)c2)n[nH]c1=S
476
CCn1c(Cc2cccc(Cl)c2)n[nH]c1=S
297
CCCCCCCn1c(Cc2cccc(Cl)c2)n[nH]c1=S
507
CCCCCn1c(Cc2cccc(Cl)c2)n[nH]c1=S
371

q: Provide measured TD50 at 0.25 h value, entry: CCCCn1c(Cc2cccc(Cl)c2)n[nH]c1=S
a: 326

* * *

Readings of selectivity ratio at 0.5 h for the listed compounds
Protocol: Protective index, ratio of TD50 in ip Swiss mouse dosed intraperitoneally 30 mins before test by Chimney test to anticonvulsant ED50 in Swiss mouse dosed intraperitoneally 30 mins before test by MES test
Assay type: ADME, organism-based
Experimental setup: in vivo, read-out: Ratio TD50/ED50
Lab note: jot down the number only; don't add units.

CCCCCCCCn1c(Cc2cccc(Cl)c2)n[nH]c1=S
2.9
CCCCCn1c(-c2cccc(Cl)c2Cl)n[nH]c1=S
1.3
CCCCCn1c(Cc2cccc(Cl)c2)n[nH]c1=S
5.2
CCCCn1c(Cc2cccc(Cl)c2)n[nH]c1=S
7.2
CCCCCCCCCn1c(Cc2cccc(Cl)c2)n[nH]c1=S
4.2

q: Name the recorded selectivity ratio at 0.5 h of the compound listed here: CCn1c(Cc2cccc(Cl)c2)n[nH]c1=S
a: 5.2

q: Please supply the value of reported selectivity ratio at 0.5 h for the item CCCCCCCn1c(Cc2cccc(Cl)c2)n[nH]c1=S
a: 8.4

* * *

Protocol: Toxicity in Swiss mouse assessed as effect on motor performance administered intraperitoneally 30 mins before test by Chimney test
Assay type: organism-based
Experimental setup: in vivo, ip
Threshold check on TD50 at 0.5 h: strictly below 500 mg/kg is Y; on or above 500 mg/kg is N.

CCCCCCCn1c(Cc2cccc(Cl)c2)n[nH]c1=S
N
CCn1c(Cc2cccc(Cl)c2)n[nH]c1=S
Y
CCCCn1c(Cc2cccc(Cl)c2)n[nH]c1=S
Y
CCCCCn1c(-c2cccc(Cl)c2Cl)n[nH]c1=S
Y
CCCCCCn1c(Cc2cccc(Cl)c2)n[nH]c1=S
N

q: Strictly below 500 mg/kg in TD50 at 0.5 h? CCCCCn1c(Cc2cccc(Cl)c2)n[nH]c1=S
a: Y
